Assay System: human CYP2C19 (Homo sapiens)
Sequence (P33261 whole entry): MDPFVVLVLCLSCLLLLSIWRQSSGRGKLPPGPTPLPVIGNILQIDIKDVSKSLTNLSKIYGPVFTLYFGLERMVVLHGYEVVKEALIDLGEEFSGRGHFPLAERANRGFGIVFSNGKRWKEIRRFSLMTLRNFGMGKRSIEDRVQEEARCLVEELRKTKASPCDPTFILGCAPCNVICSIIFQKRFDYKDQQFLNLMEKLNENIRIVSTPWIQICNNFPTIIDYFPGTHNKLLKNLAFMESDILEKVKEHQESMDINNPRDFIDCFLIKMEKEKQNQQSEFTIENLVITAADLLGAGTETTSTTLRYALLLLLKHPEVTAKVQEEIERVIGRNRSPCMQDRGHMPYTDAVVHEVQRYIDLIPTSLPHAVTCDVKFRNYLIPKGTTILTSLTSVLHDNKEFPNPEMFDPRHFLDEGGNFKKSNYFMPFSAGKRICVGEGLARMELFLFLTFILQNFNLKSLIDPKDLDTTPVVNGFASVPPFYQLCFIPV
Method Notes: biochemical
Condition Summary: CYP2C19 IC50 (half-maximal inhibitory concentration)
Counter-ions that a name gives are not always drawn.
Property Name: log10 of IC50 (log10 of the value in µM)
Log scale reminder: IC50 in µM, then log10 taken.

[
  {
    "Molecule": "CC1COC(Cn2cncn2)(c2ccc(Oc3ccc(Cl)cc3)cc2Cl)O1 (stereo not drawn) [Difenoconazole]",
    "log10 of IC50": -1.10
  },
  {
    "Molecule": "OC(c1ccc(Cl)cc1)(c1cncnc1)c1ccccc1Cl (stereo not drawn) [Fenarimol]",
    "log10 of IC50": -0.62
  },
  {
    "Molecule": "COc1cc([C@@H]2c3cc4c(cc3[C@H](O)[C@H]3COC(=O)[C@H]23)OCO4)cc(OC)c1OC [Podofilox]",
    "log10 of IC50": 0.57
  },
  {
    "Molecule": "CC[N+](CC)(CC(=O)Nc1c(C)cccc1C)Cc1ccccc1 [Denatonium benzoate]",
    "log10 of IC50": 1.59
  },
  {
    "Molecule": "FC(F)C(F)(F)OCC(Cn1cncn1)c1ccc(Cl)cc1Cl (stereo not drawn) [Tetraconazole]",
    "log10 of IC50": -1.70
  },
  {
    "Molecule": "Cc1[nH]cnc1CN1CCc2c(c3ccccc3n2C)C1=O [Alosetron hydrochloride]",
    "log10 of IC50": 1.44
  },
  {
    "Molecule": "Clc1ccccc1C(c1ccccc1)(c1ccccc1)n1ccnc1 [Clotrimazole]",
    "log10 of IC50": 0.59
  },
  {
    "Molecule": "ClC(c1ccccc1)(c1ccccc1)c1ccccc1 [Trityl chloride]",
    "log10 of IC50": -0.59
  }
]

Exam item: Which log10 of IC50 value belongs to c1ccc2c(c1)Nc1ccccc1S2 [Phenothiazine] ?
Marked response: 0.63
